Test system: JUNV-p
measurementNotes: organism not typed
Type: cell-based, Junin (JUNV)
runParameters: Vero, 24 h, read-out: JUNV-p EC50 (nM)
reportedMetric: log10(EC50) (log10 of the value in nM)
Lab note - EC50 converted to log10 from values in nM.

Below are worked cases with known answers.
CC(C)Oc1ccc(-c2cnc3ccc(-c4ccc5c(ccn5C)c4)cn23)cc1	-0.38
OC1(c2ccc(-c3ccc4ncc(-c5ccc(C6(O)CCC6)cc5)n4c3)cc2)CCC1	-0.26
CC(C)Oc1ccc(-c2ccc3ncc(-c4ccc(C5(O)CC5)cc4)n3c2)cc1	-1.15
CC(C)Oc1ccc(-c2cn3c(-c4ccc5[nH]ccc5c4)cnc3cn2)cc1	0.52
CC(=O)c1ccc(-c2ccc3ncn(-c4ccc(OC(C)C)cc4)c3n2)cc1	0.63

Now take the following compound into account.
-- ask Fill in: log10(EC50) of `CC(C)Oc1ccc(-c2cnc3ccc(-c4ccc(C5(O)CC5)cc4)cn23)cc1` is ___
-- reply -0.29

---

Test system: LASV-p
measurementNotes: organism not typed
Format: cell-based, Lassa (LASV)
runParameters: Vero, 24 h, read-out: LASV-p EC50 (nM)
reportedMetric: log10 of EC50 (log10 of the value in nM)
Lab note - EC50 converted to log10 from values in nM.

Below are worked cases with known answers.
CC(=O)c1ccc(-c2ccc3ncn(-c4ccc(OC(C)C)cc4)c3n2)cc1 [Example B4]	-0.02
CC(C)Oc1ccc(-c2cnc3ccc(-c4ccc(C(F)F)cc4)cn23)cc1 [Example C5]	0.61
CC(C)Oc1ccc(-c2cnc3ccc(-c4ccc5cc[nH]c5c4)cn23)cc1 [Example C11]	0.45
COc1ccc(-n2cnc3ccc(-c4ccc(N(C)C)cc4)cc32)cc1 [Example A7]	0.95

Now take the following molecule into account.
-- ask Fill in: log10 of EC50 of CC(C)Oc1ccc(-n2cnc3cnc(-c4ccc(C(C)(C)O)cc4)nc32)cc1 [Example B9] is ___
-- reply 1.29

---

measurementNotes: in vivo
runParameters: guinea pig, po, 10 mg/kg
reportedMetric: half-life

-- ask Fill in: half-life of `CC(C)Oc1ccc(-n2cnc3ccc(-c4ccc(C(C)(C)O)cc4)cc32)cc1` is ___
-- reply 240 to 360 min

---

measurementNotes: in vitro
runParameters: African green monkey
Below, each of the compounds is paired with its reported CC50 value.
Entry rule: numbers only, all in µM.

Below are worked cases with known answers.
COc1ccc(-n2cnc3ccc(-c4cccc(C(C)C)c4)cc32)cc1 [Example A1]	12.9
CC(C)Oc1ccc(-c2cnc3ccc(-c4ccc(OC(C)C)c(F)c4)cn23)cc1 [Example C24]	4.18

-- ask Fill in: CC50 of COc1cc2ncn(-c3ccc(OC(C)C)cc3)c2cc1-c1ccc(OC(C)C)cc1 [Example A31] is ___
-- reply 3.79

-- ask Fill in: CC50 of CC(C)Oc1ccc(-c2cnc3ncc(-c4ccc5[nH]ccc5c4)n3c2)cc1 [Example D16] is ___
-- reply 7.53

-- ask Fill in: CC50 of CC(C)Oc1ccc(-c2ccn3cnc(-c4ccc(OC(C)C)cc4)c3c2)cc1 [Example D19] is ___
-- reply 7.54

-- ask Fill in: CC50 of COc1ccc(-n2cnc3ccc(-c4ccc5[nH]ccc5c4)cc32)cc1 [Example A12] is ___
-- reply 0.2

-- ask Fill in: CC50 of CC(C)Oc1ccc(-n2cnc3ccc(-c4ccc(N(C)C)cc4)cc32)cc1 [Example A18] is ___
-- reply 14

---

measurementNotes: in vitro
runParameters: African green monkey
reportedMetric: CC50 (µM)
Entry rule: numbers only, all in µM.

c1cc(-c2ccc3ncc(-c4ccc(OC5CC5)cc4)n3c2)ccc1OC1CC1 [Example C46]	4.61
CC(=O)c1ccc(-c2ccc3ncn(-c4ccc(OC(C)C)cc4)c3c2)cc1 [Example A26]	7.52
CC(C)Oc1ccc(-c2cnc3ccc(-c4ccc5c(ccn5C)c4)cn23)cc1 [Example C22]	24.4
Cc1c(-c2ccc(OC(C)C)cc2)ccc2ncc(-c3ccc(OC(C)C)cc3)n12 [Example C51]	4.19
CC(C)Oc1ccc(-n2cnc3cnc(-c4ccc5[nH]ccc5c4)cc32)cc1 [Example B7]	13.9
OC1(c2ccc(-c3ccc4ncc(-c5ccc(C6(O)CCC6)cc5)n4c3)cc2)CCC1 [Example C47]	7.86

-- ask Fill in: CC50 of CC(C)Oc1ccc(-c2ccc3ncc(-c4ccc(OC(F)F)cc4)n3c2)cc1 [Example C40] is ___
-- reply 4.11

-- ask Fill in: CC50 of CC(C)Oc1ccc(-n2cnc3cnc(-c4ccc5[nH]ccc5c4)nc32)cc1 [Example B11] is ___
-- reply 24.2

-- ask Fill in: CC50 of COc1ccc(-n2cnc3ccc(-c4ccc(N5CCCCC5)cc4)cc32)cc1 [Example A15] is ___
-- reply 12.9

---

Tested on: LASV-p
measurementNotes: organism not typed
Type: cell-based, Lassa (LASV)
runParameters: Vero, 24 h, read-out: LASV-p EC50 (nM)
Below, each of the compounds is paired with its reported EC50 value.
Entry rule: numbers only, all in nM.

Below are worked cases with known answers.
CC(C)Oc1ccc(-c2ccc3ncc(-c4ccc(OC(F)F)cc4)n3c2)cc1	3.83
COCCOc1ccc(-c2cnc3ccc(-c4ccc(OC(C)C)cc4)cn23)cc1	3.08
COc1ccc(-n2cnc3ccc(-c4ccc5[nH]ccc5c4)cc32)cc1	0.81
CC(C)Oc1ccc(-n2cnc3ccc(-c4ccc5[nH]ccc5c4)cc32)cc1	0.91
CC(C)Oc1ccc(-c2cnc3ccc(-c4ccc(C(C)(C)O)cc4)cn23)cc1	0.59
COc1ccc(-n2cnc3ccc(-c4ccc(O)cc4)cc32)cc1	5
Cc1cc2ncn(-c3ccc(OC(C)C)cc3)c2cc1-c1ccc(OC(C)C)cc1	0.53
COc1ccc(-n2cnc3ccc(-c4cccc(C(C)C)c4)cc32)cc1	31.7

-- ask Fill in: EC50 of `CC(C)Oc1ccc(-c2ccc3ncc(-c4ccc(C(F)F)cc4)n3c2)cc1` is ___
-- reply 8.18

-- ask Fill in: EC50 of `COc1ccc(-n2cnc3ccc(-c4ccc(CO)cc4)cc32)cc1` is ___
-- reply 21.8

-- ask Fill in: EC50 of `CC(C)Oc1ccc(-c2cnc3ccc(-c4ccc(C5(O)COC5)cc4)cn23)cc1` is ___
-- reply 17.3

-- ask Fill in: EC50 of `Cc1c(-c2ccc(OC(C)C)cc2)ccc2ncc(-c3ccc(OC(C)C)cc3)n12` is ___
-- reply 0.31

-- ask Fill in: EC50 of `CC(C)Oc1ccc(-c2ccc3ncc(-c4ccc(C(C)(C)O)cc4)n3c2)cc1` is ___
-- reply 0.84

-- ask Fill in: EC50 of `c1cc2cc(-c3ccc4ncn(-c5ccc6[nH]ccc6c5)c4c3)ccc2[nH]1` is ___
-- reply 0.53

---

measurementNotes: in vitro
runParameters: African green monkey
reportedMetric: CC50 (µM)
Entry rule: numbers only, all in µM.

CC(C)Oc1ccc(-c2ccc3nc(C(N)=O)c(-c4ccc(OC(C)C)cc4)n3c2)cc1 [Example D22]	49.5
COc1ccc(-n2cnc3ccc(-c4ccc(CO)cc4)cc32)cc1 [Example A10]	4.56
CC(=O)c1ccc(-c2ccc3ncn(-c4ccc(OC(C)C)cc4)c3n2)cc1 [Example B4]	19.7
CC(C)Oc1ccc(-c2cnc3ccc(-c4ccc(C5(O)CC5)cc4)cn23)cc1 [Example C27]	5.28
CC(C)Oc1ccc(-n2ccc3ccc(-c4ccc5[nH]ccc5c4)cc32)cc1 [Example D5]	0.00587

-- ask Fill in: CC50 of CC(C)Oc1ccc(-n2ncc3ccc(-c4ccc5[nH]ccc5c4)cc32)cc1 [Example D2] is ___
-- reply 4.34

---

runParameters: guinea pig, 1 h, pH 7.4
reportedMetric: Percent parent compound remaining at 60 minutes in liver microsomes, Guinea (%)
Entry rule: numbers only, all in %.

COc1cc2ncn(-c3ccc(OC(C)C)cc3)c2cc1-c1ccc(OC(C)C)cc1	100

Now take the following molecule into account.
-- ask Fill in: Percent parent compound remaining at 60 minutes in liver microsomes, Guinea of `CC(C)Oc1ccc(-n2cnc3ccc(-c4ccc5[nH]ccc5c4)cc32)cc1` is ___
-- reply 0

---

Below, each of the compounds is paired with its reported Percent parent compound remaining at 60 minutes in liver microsomes, Monkey value.
runParameters: 1 h, pH 7.4
Entry rule: numbers only, all in %.

Below are worked cases with known answers.
CC(C)Oc1ccc(-c2cnc3ccc(-c4ccc(C(C)(C)O)cc4)cn23)cc1	16
COc1cc2ncn(-c3ccc(OC(C)C)cc3)c2cc1-c1ccc(OC(C)C)cc1	40
Cc1c(-c2ccc(OC(C)C)cc2)ccc2ncc(-c3ccc(OC(C)C)cc3)n12	21

Now take the following compound into account.
-- ask Fill in: Percent parent compound remaining at 60 minutes in liver microsomes, Monkey of `CC(C)Oc1ccc(-n2cnc3ccc(-c4ccc(C(C)(C)O)cc4)cc32)cc1` is ___
-- reply 7

This collection of values is drawn from patent US20220281825A1.
